Assay: Tmax in Wistar rat at 3 mg/kg, po or 1 mg/kg, iv after 0.25 to 24 hrs by LCMS/MS analysis
Type: ADME, organism-based
Settings: in vivo, time 0.25-24 hrs
RESULT_TYPE: Tmax (h)

1) N[C@@H](CC(=O)O)Cn1nnc(-c2ccc(Oc3ncc(Cl)cc3F)cc2)n1	4

###

Let's look at some compounds and their measured concentration at 72 h.
Test: Drug concentration in plasma isolated from C57/BL6 mouse at 0.625 mg/kg, po BID for 3 days measured after 2 hrs post last dose
Assay type: ADME, organism-based
Conditions: time 3 day
RESULT_TYPE: concentration at 72 h (nM)

1) N[C@@H](CC(=O)O)Cn1nnc(-c2ccc(Oc3ncc(Cl)cc3F)cc2)n1	147
2) O=C(O)c1ccc(CN2C[C@@H]3C[C@H]2CN3Cc2ccc(Oc3ccc(-c4ncco4)cc3)cc2)cc1 [ACEBILUSTAT]	597

###

Experiment: Half life in rat liver microsomes in presence of NADPH
Assay type: ADME, Microsome
RESULT_TYPE: half-life (min)

1. C[C@H](CN)n1nnc(-c2ccc(Oc3ccc(Cl)cc3)cc2)n1	15
2. Cc1ccc(Oc2ccc(-c3nnn(CCN)n3)cc2)cc1	5
3. N[C@H](CC(=O)O)Cn1nnc(-c2ccc(Oc3ccc(Cl)cc3)cc2)n1	240
4. C[C@@H](N)Cn1nnc(-c2ccc(Oc3ccc(Cl)cc3)cc2)n1	33
5. O=C(O)CNCCn1nnc(-c2ccc(Oc3ccc(Cl)cc3)cc2)n1	142
6. O=C(O)CCCn1nnc(-c2ccc(Oc3ccc(Cl)cc3)cc2)n1	405
7. N[C@@H](CC(=O)O)Cn1nnc(-c2ccc(Oc3ccc(Cl)cc3)cc2)n1	190
8. O=C(O)CCn1nnc(-c2ccc(Oc3ccc(Cl)cc3)cc2)n1	114
9. NCCCn1nnc(-c2ccc(Oc3ccc(Cl)cc3)cc2)n1	30
10. NCCn1nnc(-c2ccc(Oc3ccc(Cl)cc3)cc2)n1	15

###

Reported IC50 by item:
Target: UniProt:P10635
Sequence (P10635 whole entry): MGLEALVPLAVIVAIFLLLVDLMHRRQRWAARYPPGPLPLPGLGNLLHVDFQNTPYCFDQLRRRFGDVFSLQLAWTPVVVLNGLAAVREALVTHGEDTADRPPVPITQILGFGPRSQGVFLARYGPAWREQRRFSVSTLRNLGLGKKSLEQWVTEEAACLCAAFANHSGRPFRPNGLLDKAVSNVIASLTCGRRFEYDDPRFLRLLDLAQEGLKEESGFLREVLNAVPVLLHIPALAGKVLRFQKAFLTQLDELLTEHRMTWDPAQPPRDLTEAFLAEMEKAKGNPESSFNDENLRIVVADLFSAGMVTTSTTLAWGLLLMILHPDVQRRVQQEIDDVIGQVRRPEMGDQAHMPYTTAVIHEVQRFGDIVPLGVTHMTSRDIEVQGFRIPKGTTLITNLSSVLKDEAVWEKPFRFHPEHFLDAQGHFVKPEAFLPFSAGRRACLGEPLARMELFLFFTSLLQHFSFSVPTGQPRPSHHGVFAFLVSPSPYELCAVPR
RESULT_TYPE: IC50

1) C[C@@H](N)Cn1nnc(-c2ccc(Oc3ccc(Cl)cc3)cc2)n1	> 20 µM
2) O=C(O)CCn1nnc(-c2ccc(Oc3ccc(Cl)cc3)cc2)n1	> 20 µM
3) CC(=O)NCCn1nnc(-c2ccc(Oc3ccc(Cl)cc3)cc2)n1	> 20 µM

###

Experiment: Solubility of compound in aqueous buffer at pH 6.8 by HPLC analysis
Type: physicochemical
Each entry belongs to exactly one class, chosen by where its solubility falls: 1 = under 30 µM, 2 = from 30 µM up to 200 µM, 3 = 200 µM and over

1. N[C@@H](CC(=O)O)Cn1nnc(-c2ccc(Oc3ccc(Cl)cc3)cc2)n1	1
2. CCCCCOc1ccc(-c2nnn(C[C@H](N)CC(=O)O)n2)cc1	2
3. COc1cnc(Oc2ccc(-c3nnn(C[C@H](N)CC(=O)O)n3)cc2)nc1	3
4. N[C@H](CC(=O)O)Cn1nnc(-c2ccc(Oc3ccc(Cl)cn3)cc2)n1	3
5. N[C@@H](CC(=O)O)Cn1nnc(-c2ccc(Oc3nc4ccccc4s3)cc2)n1	2
6. N[C@H](CC(=O)O)Cn1nnc(-c2ccc(Oc3nc4ccccc4s3)cc2)n1	1
7. N[C@H](CC(=O)O)Cn1nnc(-c2ccc(Oc3ccc(F)cc3)cc2)n1	2
8. N[C@H](CC(=O)O)Cn1nnc(-c2ccc(Oc3ncc(Cl)cc3F)cc2)n1	3
9. N[C@@H](CC(=O)O)Cn1nnc(-c2ccc(Oc3ncc(Cl)cc3F)cc2)n1	3
10. N[C@H](CC(=O)O)Cn1nnc(-c2ccc(OCCc3ccccc3)cc2)n1	1
11. C[C@H](Cc1ccccc1)Oc1ccc(-c2nnn(C[C@@H](N)CC(=O)O)n2)cc1	3
12. N[C@H](CC(=O)O)Cn1nnc(-c2ccc(Oc3ccc(Cl)cc3)cc2)n1	1
13. N[C@H](CC(=O)O)Cn1nnc(-c2ccc(Oc3ccc(-c4ncco4)cc3)cc2)n1	1
14. N[C@@H](CC(=O)O)Cn1nnc(-c2ccc(COCc3ccccc3)cc2)n1	2
